Data origin, for the record: patent US9150592B2

system: UniProt P04150
Sequence (P04150 1-777): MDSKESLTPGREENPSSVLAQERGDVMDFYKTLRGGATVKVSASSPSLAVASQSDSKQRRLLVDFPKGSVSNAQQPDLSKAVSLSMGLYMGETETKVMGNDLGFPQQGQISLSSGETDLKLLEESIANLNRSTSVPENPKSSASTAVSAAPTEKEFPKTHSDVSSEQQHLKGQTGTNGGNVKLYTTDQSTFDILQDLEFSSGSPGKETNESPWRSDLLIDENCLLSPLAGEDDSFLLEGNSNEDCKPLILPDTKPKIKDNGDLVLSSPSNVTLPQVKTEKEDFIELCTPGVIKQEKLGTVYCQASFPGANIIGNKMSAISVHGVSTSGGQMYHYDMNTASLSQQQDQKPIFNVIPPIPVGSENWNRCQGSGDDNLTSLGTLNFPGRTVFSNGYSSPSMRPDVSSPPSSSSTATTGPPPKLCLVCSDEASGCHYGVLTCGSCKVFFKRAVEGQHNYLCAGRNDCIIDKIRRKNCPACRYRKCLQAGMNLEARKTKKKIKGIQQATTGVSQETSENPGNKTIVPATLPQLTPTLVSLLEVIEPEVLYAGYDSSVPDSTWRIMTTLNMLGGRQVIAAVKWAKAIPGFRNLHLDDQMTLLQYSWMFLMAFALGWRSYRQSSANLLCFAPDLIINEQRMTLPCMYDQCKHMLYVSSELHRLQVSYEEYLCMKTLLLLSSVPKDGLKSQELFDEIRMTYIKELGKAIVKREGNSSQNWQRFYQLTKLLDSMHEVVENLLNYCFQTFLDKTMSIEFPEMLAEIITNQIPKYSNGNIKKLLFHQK
For each of the compounds below, state its IC50.

Input Cc1ncccc1NC(=O)c1ccc([C@H]2SC[C@H](C)Nc3c2c(-c2ccccn2)nn3C)c(C#N)c1 (single isomer, unassigned) [M.18] . Output IC50: 1000 to 10000 nM

Input Cc1cc(Br)ccc1[C@H]1SC[C@H](C(N)=O)Nc2c1c(-c1ccccn1)nn2C (racemic) . Output IC50: 100 to 1000 nM

Input Cc1cc(CCC(C)(C)O)ccc1[C@@H]1SC[C@@H](C)Nc2c1c(-c1ccccn1)nn2C (single isomer, unassigned) [M.44] . Output IC50: < 100 nM

Input Cc1ccc(C2SCCNc3c2c(-c2ccccn2)nn3C)c(Cl)c1 (centres unmarked) . Output IC50: < 100 nM

Input Cc1nn(C)c2c1C(c1ccc3[nH]ncc3c1)SCCN2 (centres unmarked) [D.76] . Output IC50: > 10000 nM

Input Cc1cc(OC(F)(F)F)ccc1C1SCCNc2c1c(-c1ccccn1)nn2C (centres unmarked) [D.12] . Output IC50: < 100 nM

Input Cc1cc(Cl)ccc1[C@H]1SC(C)(C)[C@@H](c2ccccc2)Nc2c1c(C)nn2C (racemic) [K.2] . Output IC50: 1000 to 10000 nM

Input Cn1nc(-c2ccccn2)c2c1NCCSC2c1ccc(Br)cc1Cl (centres unmarked) . Output IC50: < 100 nM

Input Cn1nc(-c2ccccn2)c2c1NCCSC2c1ccc(C(=O)O)cc1Cl (centres unmarked) . Output IC50: 100 to 1000 nM

Input COc1cc(Cl)ccc1C1SCCNc2c1c(-c1ccccn1)nn2C (centres unmarked) [D.5] . Output IC50: < 100 nM

Input Cn1nc(-c2ccccn2)c2c1NCCSC2c1c(Cl)cccc1Cl (centres unmarked) [D.2] . Output IC50: 1000 to 10000 nM

Input Cc1cc(Cl)ccc1C1SCCNc2c1c(-c1ccccn1)nn2C (single isomer, unassigned) . Output IC50: 100 to 1000 nM

Input CNC(=O)c1cncc(-c2ccc(C3SCCNc4c3c(-c3ccccn3)nn4C)c(Cl)c2)c1 (centres unmarked) [U.8] . Output IC50: 1000 to 10000 nM

Input Cc1cc(C(=O)Nc2cccnc2C)ccc1[C@@H]1SCCNc2c1c(-c1ccccn1)nn2C . Output IC50: < 100 nM
